- Test system: morningglory (Ipomoea coccinea)
- assay overview: Test C preemergence, plant response rating
- Type: in vivo
- condition parameters: Preemergence; 31 g ai/ha; scale 0 to 100
parameter: Plant response rating, Morningglory
No unit in the answer, please; the number alone is enough.

Examples with their reported Plant response rating, Morningglory follow.
CCCC(=O)c1c(Br)cccc1Oc1ncc(Cl)cn1 [Compound 75] ... 0
CCCC(=O)c1c(Oc2ncc(Cl)cn2)cccc1C(F)(F)F [Compound 136] ... 0
N#Cc1cccc(Oc2ncc(Cl)cn2)c1CCCC(F)(F)F [Compound 72] ... 40

Query: Plant response rating, Morningglory; subject: O=C(CCCC(F)(F)F)c1c(Cl)cccc1Oc1ncc(Cl)cn1 [Compound 143]
Reply: 0

* * *

- System: pigweed (Amaranthus retroflexus)
- assay overview: Test A preemergence, visual injury rating
- Type: in vivo
- condition parameters: 500 g ai/ha, 0 to 100 scale (0 no effect, 100 complete control)
parameter: Pigweed plant response rating
Reply with the value as a number alone.

Worked set:
CCOCc1c(Br)cccc1Oc1ncc(Cl)cn1 ... 70
CCCCC(=O)c1c(Oc2ncc(Cl)cn2)cccc1C(F)(F)F ... 100
N#Cc1cccc(Oc2ncc(Cl)cn2)c1C(=O)OCC(F)(F)F ... 30
O=C(OCCC(F)(F)F)c1c(F)cccc1Oc1ncc(Br)cn1 ... 40
N#Cc1ccc(Oc2ncc(Cl)cn2)c(C(=O)OCCC(F)(F)F)c1 ... 0
CCCC(=O)c1c(Oc2ncc(Cl)cn2)cccc1C(F)(F)F ... 100
O=C(SCC(F)(F)F)c1c(Br)cccc1Oc1ncc(Cl)cn1 ... 60
CCSC(=O)c1c(Br)cccc1Oc1ncc(Cl)cn1 ... 90

Query: Param item = O=C(OCC(F)(F)F)c1c(F)cccc1Oc1ncc(Cl)cn1 ; retrieve measured Pigweed plant response rating.
Reply: 0

Query: Using the record for CC(C)(C)OC(=O)c1c(Br)cccc1Oc1ncc(Cl)cn1 , report its Pigweed plant response rating.
Reply: 100

Query: If you can, please state the reported Pigweed plant response rating value of N#Cc1cnc(Oc2cccc(Br)c2C(=O)OCC(F)(F)F)nc1 .
Reply: 0

Query: Item under review: O=C(CCCC(F)(F)F)c1c(Oc2ncc(Cl)cn2)cccc1C(F)(F)F . Reported Pigweed plant response rating?
Reply: 100

Query: Find the recorded Pigweed plant response rating belonging to O=C(OCCC(F)(F)F)c1ccccc1Oc1ncc(Cl)cn1 and report it.
Reply: 10

* * *

Below is a list of entries, each paired with its recorded Blackgrass plant response rating (0 to 100 scale) value.
- Test system: blackgrass (Alopecurus myosuroides)
- assay overview: Test A postemergence, visual injury rating
- Format: in vivo
- condition parameters: 500 g ai/ha, 0 is no effect, 100 is complete control

Answered examples (4):
CC(C)=CCOC(=O)c1c(Br)cccc1Oc1ncc(Cl)cn1 ... 20
N#CCOC(=O)c1c(F)cccc1Oc1ncc(Cl)cn1 ... 0
O=C(OCC(F)(F)F)c1c(F)cccc1Oc1ncc(Br)cn1 ... 0
O=C(OCCCC(F)(F)F)c1c(Oc2ncc(Cl)cn2)cccc1C(F)(F)F ... 40

Read the next record carefully.
Query: Item N#CCOC(=O)c1c(C#N)cccc1Oc1ncc(Cl)cn1 has what recorded Blackgrass plant response rating (0 to 100 scale)?
Reply: 0

* * *

- Test system: rice (Oryza sativa)
- assay overview: Test B flooded paddy test, plant response rating
- Assay type: in vivo
- condition parameters: 250 g ai/ha; Flood; scale of 0 to 100 where 0 is no effect and 100 is complete control; 13 to 15 days
parameter: Plant response rating, Rice
Answer field: number only, no words.

CC(C)COC(=O)c1c(Br)cccc1Oc1ncc(Cl)cn1 ... 0
CCCC(C#N)c1c(Br)cccc1Oc1ncc(Cl)cn1 (stereo not drawn) ... 0
CC(C)Oc1cccc(Oc2ncc(Cl)cn2)c1C(=O)OCCC(F)(F)F ... 0
O=C(OCCCl)c1c(Br)cccc1Oc1ncc(Cl)cn1 ... 10
O=C(OCC(Cl)(Cl)Cl)c1c(Br)cccc1Oc1ncc(Cl)cn1 ... 0
CN(OCC(F)(F)F)C(=O)c1c(Br)cccc1Oc1ncc(Cl)cn1 ... 0

Query: Request: Plant response rating, Rice, test system rice (Oryza sativa), entry O=C(OCCC(F)(F)F)c1c(Oc2ncc(Cl)cn2)cccc1C(F)(F)F
Reply: 20

Query: Item: C=C(Cl)COC(=O)c1c(Br)cccc1Oc1ncc(Cl)cn1 Test system: rice (Oryza sativa) Read-out: Plant response rating, Rice Value: ?
Reply: 0

Query: Missing value: Plant response rating, Rice, rice (Oryza sativa), entry CCSC(=O)c1c(Br)cccc1Oc1ncc(Cl)cn1 . Fill in?
Reply: 0

* * *

List of Plant response rating, Pigweed values.
- System: pigweed (Amaranthus retroflexus)
- assay overview: Test A preemergence, visual injury rating
- Assay type: in vivo
- condition parameters: 31 g ai/ha, 0 to 100 scale, 0 no effect, 100 complete control
Respond using a number only.

Check out these entries, answers already filled in.
CC(C)(C)CCOC(=O)c1c(Br)cccc1Oc1ncc(Cl)cn1 ... 0
O=C(OCCC(F)(F)F)c1c(OCC(F)(F)F)cccc1Oc1ncc(Cl)cn1 ... 0

Note: attention shifts to another entry.
Query: Sample N#Cc1cccc(Oc2ncc(Cl)cn2)c1C(=O)CCC(F)(F)C(F)(F)F — what was its Plant response rating, Pigweed?
Reply: 0

* * *

- Test system: barnyardgrass (Echinochloa crus-galli)
- assay overview: Test A postemergence, visual injury rating
- Type: in vivo
- condition parameters: 500 g ai/ha, 0 is no effect, 100 is complete control
Item-by-item account of Barnyardgrass plant response rating (0 to 100 scale)
Form field (numeric): enter value without unit.

Known Barnyardgrass plant response rating (0 to 100 scale) results, listed for orientation:
O=C(SCC(F)(F)F)c1c(Br)cccc1Oc1ncc(Cl)cn1 [Compound 85] ... 20
N#Cc1cccc(Oc2ncc(Cl)cn2)c1C(=O)OCCC(F)(F)F [Compound 30] ... 20
CCSC(=O)c1c(Br)cccc1Oc1ncc(Cl)cn1 [Compound 83] ... 90
N#CCCOC(=O)c1c(Br)cccc1Oc1ncc(Cl)cn1 [Compound 7] ... 90

Let us move to another entry and its Barnyardgrass plant response rating (0 to 100 scale).
Query: Provide value of Barnyardgrass plant response rating (0 to 100 scale) for this record tested with barnyardgrass (Echinochloa crus-galli): N#Cc1ccc(Oc2ncc(Cl)cn2)c(C(=O)OCCC(F)(F)F)c1 [Compound 64]
Reply: 0

* * *

- System: giant foxtail (Setaria faberii)
- assay overview: Test A preemergence, visual injury rating
- Format: in vivo
- condition parameters: 125 g ai/ha, 0 to 100 scale (0 no effect, 100 complete control)
- From the text: […]
parameter: Plant response rating, Foxtail, Giant

O=C(CCC(F)(F)C(F)(F)F)c1c(Br)cccc1Oc1ncc(Cl)cn1 ... 100

Query: # returns recorded Plant response rating, Foxtail, Giant (system: giant foxtail (Setaria faberii)) for CCCCC(C#N)c1ccccc1Oc1ncc(Cl)cn1 (stereo not shown)
Reply: 100

Query: Record lookup: for giant foxtail (Setaria faberii), what Plant response rating, Foxtail, Giant belongs to O=C(OCCC(F)(F)F)c1c(Oc2ncc(Cl)cn2)cccc1C(F)(F)F ?
Reply: 100

Query: Write down the reported Plant response rating, Foxtail, Giant of FC(F)(F)CCCCCc1c(Cl)cccc1Oc1ncc(Cl)cn1 , test system: giant foxtail (Setaria faberii).
Reply: 100

Query: Lab note: need Plant response rating, Foxtail, Giant with giant foxtail (Setaria faberii) for entry N#CCc1ccccc1Oc1ncc(Cl)cn1 , please look it up.
Reply: 0

Query: Recorded Plant response rating, Foxtail, Giant for CCc1cccc(Oc2ncc(Cl)cn2)c1CCCCC(F)(F)F with giant foxtail (Setaria faberii), please?
Reply: 90

Query: giant foxtail (Setaria faberii) / Plant response rating, Foxtail, Giant / CCOCc1c(Br)cccc1Oc1ncc(Cl)cn1 : value?
Reply: 80

Query: Lab request: please report Plant response rating, Foxtail, Giant under test system giant foxtail (Setaria faberii) for CCCCC(C#N)c1c(Br)cccc1Oc1ncc(Cl)cn1 (stereo not shown)
Reply: 90

Query: What measured Plant response rating, Foxtail, Giant is associated with CN(CCCC(F)(F)F)c1c(C#N)cccc1Oc1ncc(Cl)cn1 on giant foxtail (Setaria faberii)?
Reply: 0

Query: Lookup: Plant response rating, Foxtail, Giant / giant foxtail (Setaria faberii) / N#Cc1cccc(Oc2ncc(Cl)cn2)c1C(=O)CCCCC(F)(F)F
Reply: 40

* * *

- Tested on: kochia (Kochia scoparia)
- assay overview: Test A postemergence, visual injury rating
- Format: in vivo
- condition parameters: 125 g ai/ha, 0 to 100 scale, 0 is no effect, 100 is complete control, approximately 10 days
parameter: Kochia plant response rating
Reply: number alone, nothing else.

Would you please look over these solved cases?
N#Cc1cccc(Oc2ncc(Cl)cn2)c1CCCCC(F)(F)F ... 100
CC(=NOC(C)C)c1c(Br)cccc1Oc1ncc(Cl)cn1 ... 10

Next up:
Query: Give the measured Kochia plant response rating of CCCCc1c(C#N)cccc1Oc1ncc(Cl)cn1 .
Reply: 100
